assay: plasmodial surface anion channel blockers, osmotic lysis – cell-based, P. falciparum Indochina, OD700, 1 h, primary screen (AID 1154); conditions: P. falciparum Indochina infected RBC osmotic lysis, called active from +8 up or from −8 down
Calls of active or inactive are those of the source.
Write down the outcome that applies. Available outcomes: active, inactive

The examples below pair each entry with its known result.
Data request: Please let me know the test result on file for "COc1ccc([Si](C)(C)[C@H]2[C@H](CCO)O[C@@]3(C(=O)N(Cc4ccc(NC(=O)[C@H](C)O)cc4)c4ccccc43)[C@@H]2C)cc1" .
Data returned: active

Data request: Would you mind telling me which call this test gave "COC(=O)[C@@]1(Cc2ccc(F)cc2)[C@H]2c3cc(C(=O)N4CCCC4)n(Cc4cc(F)cc5c4OCOC5)c3C[C@H]2CN1C(=O)c1ccccc1" ?
Data returned: inactive

Data request: Fill in: this test's call for "CCCC=C(CCC)[C@@H](NC(=O)OCC(C)C)c1ccc(C(=O)OC)cc1" is ___
Data returned: inactive

Data request: Write down the call the test reported for this molecule. Item: "CCOC(=O)C[C@H]1[C@H](OC(=O)Cc2ccc3c(c2)OCO3)[C@@H](NC(=O)c2ccc3ccccc3n2)c2cc(OCCCO)ccc2N1C(=O)Cc1ccc(OC)cc1"
Data returned: active

Continuing:
Data request: Hey, what did the test say about CC1CC/C=C\[C@H]2OC34C=CCN(Cc5ccccc5)C(=O)[C@H]3N(CCCCCCO)C(=O)[C@@H]4C2C(=O)O1 (some centres not stated) ?
Data returned: inactive

Data request: For this molecule, state the assay outcome: "COc1cc(CO)cc(I)c1O[C@H]1C=C(C(=O)NCCO)C[C@@H]2O[C@H]12"
Data returned: active

Data request: Which outcome was entered for the molecule "O=C1N(CCS(=O)(=O)c2ccccc2)c2ccccc2C[C@]12N=C(c1ccc(OCCCO)cc1)O[C@@H]2c1ccccc1" in this test?
Data returned: active
